# Test system: CD8+ T cells of healthy HLA-A*02+ donors
# method-summary: In vitro immunogenicity: priming of CD8+ T cells with aAPCs loaded with HLA-A*02/peptide complexes and anti-CD28, multimer staining
# Format: cell-based, human
# run-conditions: HLA-A*02 peptides of Table 12B

substance	Wells positive [%]
43 (LLWAGPVTA; listed as Homo sapiens) [compound 43]	++++ (>= 70 % = ++++)
2 (ALYGKLLKL; listed as Homo sapiens) [compound 2]	++++ (>= 70 % = ++++)

====

# tested-system: HLA-A*02 (Homo sapiens, UniProt P04439, D140Y/D185E/D98H/E176V/E277Q/G131W/G231S/I119V/I121R/I166T/I218V/N151K/N90K/P208A/P217A/Q86G/Q94H/R138H/R169H)
# method-summary: MHC binding assay: UV-ligand exchange, beta2m ELISA (peptide exchange yield)
# run-conditions: binding to HLA-A*02, β2m ELISA
readout-type: Peptide exchange (MHC class I binding score, peptide exchange yield)

substance	test-value
27 (KVFGDLDQV; listed as Homo sapiens) [compound 27]	+++ (50%-75% = +++)
37 (ALINDILGELVKL; listed as Homo sapiens) [compound 37]	+++ (50%-75% = +++)
12 (GLIYEETRGV; listed as Homo sapiens) [compound 12]	++ (20%-49% = ++)
321 (SLWFKPEEL; listed as Homo sapiens) [compound 321]	+++ (50%-75% = +++)
337 (KVLGKIEKV; listed as Homo sapiens) [compound 337]	+++ (50%-75% = +++)
16 (HLYNNEEQV; listed as Homo sapiens) [compound 16]	++ (20%-49% = ++)

Give the reported value of Peptide exchange (MHC class I binding score, peptide exchange yield) for this record: 51 (LLLDGDFTL; listed as Homo sapiens) [compound 51] +++ (50%-75% = +++)

State its Peptide exchange (MHC class I binding score, peptide exchange yield): 4 (ELAEIVFKV; listed as Homo sapiens) [compound 4] +++ (50%-75% = +++)

Give the value of Peptide exchange (MHC class I binding score, peptide exchange yield) reported for the following: 38 (KMQEDLVTL; listed as Homo sapiens) [compound 38] +++ (50%-75% = +++)

Please look at this substance and report its Peptide exchange (MHC class I binding score, peptide exchange yield): 329 (FAWEPSFRDQV; listed as Homo sapiens) [compound 329] ++ (20%-49% = ++)

====

# tested-system: HLA-A*02 (Homo sapiens, UniProt P04439, D140Y/D185E/D98H/E176V/E277Q/G131W/G231S/I119V/I121R/I166T/I218V/N151K/N90K/P208A/P217A/Q86G/Q94H/R138H/R169H)
# method-summary: MHC binding assay: UV-ligand exchange, beta2m ELISA (peptide exchange yield)
# run-conditions: binding to HLA-A*02, β2m ELISA
readout-type: Peptide exchange (MHC class I binding score, peptide exchange yield)

substance	test-value
61 (HLPDFVKQL; listed as Homo sapiens) [compound 61]	++ (20%-49% = ++)
62 (SLFNQEVQI; listed as Homo sapiens) [compound 62]	+++ (50%-75% = +++)
44 (GLLWQIIKV; listed as Homo sapiens) [compound 44]	++ (20%-49% = ++)
67 (GVIETVTSL; listed as Homo sapiens) [compound 67]	++ (20%-49% = ++)
9 (FLGDYVENL; listed as Homo sapiens) [compound 9]	++ (20%-49% = ++)

Provide Peptide exchange (MHC class I binding score, peptide exchange yield) value for the following substance: 57 (VLISSTVRL; listed as Homo sapiens) [compound 57] ++ (20%-49% = ++)

Please indicate Peptide exchange (MHC class I binding score, peptide exchange yield) recorded for 64 (GLSSSSYEL; listed as Homo sapiens) [compound 64] ++ (20%-49% = ++)

# return recorded Peptide exchange (MHC class I binding score, peptide exchange yield) for entry 87 (YLTEVFLHVV; listed as Homo sapiens) [compound 87] +++ (50%-75% = +++)

====

# tested-system: HLA-A*02 (Homo sapiens, UniProt P04439, D140Y/D185E/D98H/E176V/E277Q/G131W/G231S/I119V/I121R/I166T/I218V/N151K/N90K/P208A/P217A/Q86G/Q94H/R138H/R169H)
# method-summary: MHC binding assay: UV-ligand exchange, beta2m ELISA (peptide exchange yield)
# run-conditions: binding to HLA-A*02, β2m ELISA
readout-type: Peptide exchange (MHC class I binding score, peptide exchange yield)

Consider the following illustrative entries.
substance	test-value
52 (ELLSSIFFL; listed as Homo sapiens) [compound 52]	+++ (50%-75% = +++)
22 (MLSDLTLQL; listed as Homo sapiens) [compound 22]	++++ (>= 75% = ++++)
65 (KLDGICWQV; listed as Homo sapiens) [compound 65]	+++ (50%-75% = +++)
31 (ALSDETKNNWEV; listed as Homo sapiens) [compound 31]	++++ (>= 75% = ++++)
47 (GLYQAQVNL; listed as Homo sapiens) [compound 47]	+++ (50%-75% = +++)
14 (LLDHLSFINKI; listed as Homo sapiens) [compound 14]	++ (20%-49% = ++)
55 (IASAIVNEL; listed as Homo sapiens) [compound 55]	++ (20%-49% = ++)
69 (GIYDGILHSI; listed as Homo sapiens) [compound 69]	+++ (50%-75% = +++)

State its Peptide exchange (MHC class I binding score, peptide exchange yield): 21 (SLYHRVLLY; listed as Homo sapiens) [compound 21] ++++ (>= 75% = ++++)

Please indicate Peptide exchange (MHC class I binding score, peptide exchange yield) recorded for 46 (SLAKHGIVAL; listed as Homo sapiens) [compound 46] +++ (50%-75% = +++)

Return reported Peptide exchange (MHC class I binding score, peptide exchange yield). Input substance: 17 (ILHEHHIFL; listed as Homo sapiens) [compound 17] +++ (50%-75% = +++)

Tell me its Peptide exchange (MHC class I binding score, peptide exchange yield) given 40 (SLLALPQDLQA; listed as Homo sapiens) [compound 40] as the entry. +++ (50%-75% = +++)

Consider the substance 82 (VLLRVLIL; listed as Homo sapiens) [compound 82] . State its measured Peptide exchange (MHC class I binding score, peptide exchange yield). ++ (20%-49% = ++)

Fill in Peptide exchange (MHC class I binding score, peptide exchange yield) for record 33 (LLLPLLPPLSPSLG; listed as Homo sapiens) [compound 33] +++ (50%-75% = +++)

Provide measured Peptide exchange (MHC class I binding score, peptide exchange yield) value, entry: 39 (ALMAVVSGL; listed as Homo sapiens) [compound 39] +++ (50%-75% = +++)

Note Peptide exchange (MHC class I binding score, peptide exchange yield) for the substance shown: 70 (GLFSQHFNL; listed as Homo sapiens) [compound 70] +++ (50%-75% = +++)

Return Peptide exchange (MHC class I binding score, peptide exchange yield) for the following substance: 323 (ILSVVNSQL; listed as Homo sapiens) [compound 323] +++ (50%-75% = +++)

Look up Peptide exchange (MHC class I binding score, peptide exchange yield) of 83 (ELLEYLPQL; listed as Homo sapiens) [compound 83] and report it. +++ (50%-75% = +++)

# return recorded Peptide exchange (MHC class I binding score, peptide exchange yield) for entry 322 (ALVSGGVAQA; listed as Homo sapiens) [compound 322] +++ (50%-75% = +++)

Quote Peptide exchange (MHC class I binding score, peptide exchange yield) reported for 45 (VLGPTPELV; listed as Homo sapiens) [compound 45] please. +++ (50%-75% = +++)

====

# Tested on: CD8+ T cells of healthy HLA-A*02+ donors
# method-summary: In vitro immunogenicity: priming of CD8+ T cells with aAPCs loaded with HLA-A*02/peptide complexes and anti-CD28, multimer staining
# Format: cell-based, human
# run-conditions: HLA-A*02 peptides of Table 12B
readout-type: Wells positive [%]

substance	tested-system	readout-type	test-value
9 (FLGDYVENL; listed as Homo sapiens) [compound 9]	CD8+ T cells of healthy HLA-A*02+ donors	Wells positive [%]	+ (<20% = +)
7 (AAAAKVPEV; listed as Homo sapiens) [compound 7]	CD8+ T cells of healthy HLA-A*02+ donors	Wells positive [%]	+ (<20% = +)
17 (ILHEHHIFL; listed as Homo sapiens) [compound 17]	CD8+ T cells of healthy HLA-A*02+ donors	Wells positive [%]	+ (<20% = +)

====

# tested-system: HLA-A*02 (Homo sapiens, UniProt P04439, D140Y/D185E/D98H/E176V/E277Q/G131W/G231S/I119V/I121R/I166T/I218V/N151K/N90K/P208A/P217A/Q86G/Q94H/R138H/R169H)
# method-summary: MHC binding assay: UV-ligand exchange, beta2m ELISA (peptide exchange yield)
# run-conditions: binding to HLA-A*02, β2m ELISA
readout-type: Peptide exchange (MHC class I binding score, peptide exchange yield)

Worked set:
substance	test-value
3 (TLLGKQVTL; listed as Homo sapiens) [compound 3]	+++ (50%-75% = +++)
339 (VLGPGPPPL; listed as Homo sapiens) [compound 339]	++ (20%-49% = ++)
334 (GRADALRVL; listed as Homo sapiens) [compound 334]	+++ (50%-75% = +++)
340 (SVAKTILKR; listed as Homo sapiens) [compound 340]	++ (20%-49% = ++)
6 (FLDPAQRDL; listed as Homo sapiens) [compound 6]	+++ (50%-75% = +++)

Look up and state reported Peptide exchange (MHC class I binding score, peptide exchange yield) for 56 (KILDLTRVL; listed as Homo sapiens) [compound 56] ++ (20%-49% = ++)

Report measured Peptide exchange (MHC class I binding score, peptide exchange yield); entry is 54 (FINPKGNWLL; listed as Homo sapiens) [compound 54] +++ (50%-75% = +++)

For the substance 74 (ILDETLENV; listed as Homo sapiens) [compound 74] , report Peptide exchange (MHC class I binding score, peptide exchange yield). ++ (20%-49% = ++)

Hello, please tell me recorded Peptide exchange (MHC class I binding score, peptide exchange yield) for this one: 85 (STLDGSLHAV; listed as Homo sapiens) [compound 85] +++ (50%-75% = +++)

Please look at this substance and report its Peptide exchange (MHC class I binding score, peptide exchange yield): 325 (RLLPKVQEV; listed as Homo sapiens) [compound 325] ++ (20%-49% = ++)

Read off the recorded Peptide exchange (MHC class I binding score, peptide exchange yield) for 29 (TLCNKTFTA; listed as Homo sapiens) [compound 29] +++ (50%-75% = +++)
